Assay: chemical genetic growth profiling, strain panel (AID 1159580);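 further: tested at 20 µM; growth read once vehicle control cultures reached saturation at 30 °C; 1 = growth at the plate median or of vehicle wells; lower values mean less growth of the strain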
Settings: S. cerevisiae deletion strains, growth OD, locus YNL071W, strain lat1, hits give low values
The campaign covered roughly 5,500 compounds. About 2,000 (36%) were called active. Not shown: some 18% with an inconclusive outcome. Some of the results follow.
Recorded normalized growth, one value per entry.
Write the value as a bare number.

Solved cases (6 shown):
CN(N=O)C(=O)N[C@@H]1[C@@H](O)[C@H](O)[C@@H](CO)O[C@@H]1O : 0.983
[N-]=[N+]=CC(=O)OCC(N)C(=O)O (configuration not stated) : 0.992
CCOC(=O)C1C(C=C(C)C)C1(C)C (configuration not stated) : 1.01
CC(C)Oc1ccc2c(=O)cc(-c3ccccc3)oc2c1 : 0.734
CCN1CCN(c2cc3c(cc2F)c(=O)c(C(=O)O)cn3C2CC2)CC1 : 1.02
COc1ccc(-c2cc(=O)c3c(OC)c(OC)c(OC)c(OC)c3o2)cc1 : 0.473

[Q] Record request: normalized growth value, item CNCCC=C1c2ccccc2CCc2ccccc21
[A] 0.987

[Q] Next: CCn1cc(C(=O)O)c(=O)c2cc(F)c(N3CCNCC3)cc21
[A] 0.962

---

Assay: chemical genetic growth profiling, strain panel (AID 1159580);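 further: tested at 20 µM; growth read once vehicle control cultures reached saturation at 30 °C; 1 = growth at the plate median or of vehicle wells; lower values mean less growth of the strain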
Conditions: S. cerevisiae deletion strains, growth OD, locus YDR101C, strain arx1, hits give low values
The whole screen tested about 5,500 compounds, of which about 2,000 (36%) were called active. Inconclusive results (about 18%) are left out. Some of the results follow.
Measured normalized growth values are reported for all entries that follow.
Respond with the number and no other words.

[Q] Quick one: normalized growth for CCC/C=C/C=C/[C@@H]1C[C@@H](O)[C@@H](O)C(=O)[C@H]1C=O ?
[A] 0.978

---

Assay: chemical genetic growth profiling, strain panel (AID 1159580);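 further: tested at 20 µM; growth read once vehicle control cultures reached saturation at 30 °C; 1 = growth at the plate median or of vehicle wells; lower values mean less growth of the strain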
Settings: S. cerevisiae deletion strains, growth OD, locus YJL187C, strain SWE1, hits give low values
In all, about 5,500 compounds went through this assay and about 2,000 (36%) were called active. Not shown: some 18% with an inconclusive outcome. This is one part of the list.
Measured normalized growth of individual entries
In your answer, state the number alone without any accompanying words.

Guide cases for normalized growth, answers given:
CC(C)Oc1ccc2c(=O)cc(-c3ccccc3)oc2c1 : 0.951
COc1ccc(-c2cc(=O)c3ccccc3o2)cc1 : 0.9
CC(C)c1ccc2c(c1O)CC[C@H]1C3=C(CC[C@]21C)C(=O)OC3 : 0.985
CC(=O)Oc1c(-c2ccccc2)oc2c(CC=C(C)C)c3c(c(OC(C)=O)c2c1=O)C=CC(C)(C)O3 : 1.05

[Q] Entry CC(=O)N(O)CCCCCNC(=O)CCC(=O)N(O)CCCCCNC(=O)CCC(=O)N(O)CCCCCN has what normalized growth?
[A] 0.987

---

Assay: chemical genetic growth profiling, strain panel (AID 1159580);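 further: tested at 20 µM; growth read once vehicle control cultures reached saturation at 30 °C; 1 = growth at the plate median or of vehicle wells; lower values mean less growth of the strain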
Conditions: S. cerevisiae deletion strains, growth OD, locus YMR307W, strain GAS1, hits give low values
The whole screen tested about 5,500 compounds, of which about 2,000 (36%) were called active. Not shown: some 18% with an inconclusive outcome. This is one part of the list.
normalized growth class ranges: range A = under 0.8, range B = from 0.8 up to 1, range C = 1 and over

COc1cc([C@@H]2c3cc4c(cc3[C@H](O)[C@H]3COC(=O)[C@@H]23)OCO4)cc(OC)c1OC : range C
OC1C(O)C(O)C(O)C(O)C1O (stereo unspecified) : range C
COc1ccc(-c2cc(=O)c3ccccc3o2)cc1OC : range B
COc1c(O)cccc1O : range C

[Q] Categorize the following entry: CC(=O)O.CC(=O)O.[Cd]
[A] range A

[Q] Another molecule to check: CC(C)=CCc1c2c(c(O)c3c(=O)c(O)c(-c4ccccc4)oc13)C=CC(C)(C)O2
[A] range A
